What follows is a collection of IC50 values obtained with UniProt P50750.
Sequence (P50750 whole entry): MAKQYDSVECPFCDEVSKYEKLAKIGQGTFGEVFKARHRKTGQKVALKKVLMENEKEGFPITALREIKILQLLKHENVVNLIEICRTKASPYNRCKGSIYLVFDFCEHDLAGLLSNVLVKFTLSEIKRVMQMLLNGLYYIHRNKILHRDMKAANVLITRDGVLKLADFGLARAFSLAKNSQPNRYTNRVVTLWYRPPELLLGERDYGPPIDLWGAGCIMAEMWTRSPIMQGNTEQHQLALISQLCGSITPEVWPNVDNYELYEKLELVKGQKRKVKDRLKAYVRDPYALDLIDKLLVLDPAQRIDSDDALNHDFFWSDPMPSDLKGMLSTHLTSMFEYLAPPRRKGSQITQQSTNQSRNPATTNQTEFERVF
Sequence (O60563 whole entry partner): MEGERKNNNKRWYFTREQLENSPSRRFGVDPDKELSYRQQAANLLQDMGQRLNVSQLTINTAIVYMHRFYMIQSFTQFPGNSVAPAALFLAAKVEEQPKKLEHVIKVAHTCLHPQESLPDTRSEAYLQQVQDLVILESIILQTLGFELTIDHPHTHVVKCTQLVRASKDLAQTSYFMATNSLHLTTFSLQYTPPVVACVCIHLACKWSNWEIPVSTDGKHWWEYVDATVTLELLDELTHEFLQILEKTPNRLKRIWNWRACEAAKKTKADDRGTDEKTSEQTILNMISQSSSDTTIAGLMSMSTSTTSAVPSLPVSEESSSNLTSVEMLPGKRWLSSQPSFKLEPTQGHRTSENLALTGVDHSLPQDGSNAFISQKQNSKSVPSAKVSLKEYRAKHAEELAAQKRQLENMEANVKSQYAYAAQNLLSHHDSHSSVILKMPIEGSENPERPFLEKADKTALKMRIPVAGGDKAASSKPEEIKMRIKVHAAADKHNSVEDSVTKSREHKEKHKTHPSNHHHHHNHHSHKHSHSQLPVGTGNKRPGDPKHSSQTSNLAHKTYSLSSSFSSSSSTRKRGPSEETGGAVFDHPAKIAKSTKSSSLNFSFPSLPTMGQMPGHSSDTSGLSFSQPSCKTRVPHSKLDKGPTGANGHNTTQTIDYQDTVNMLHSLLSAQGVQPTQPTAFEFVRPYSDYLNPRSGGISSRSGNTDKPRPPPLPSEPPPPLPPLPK

>  <compound>
CC(=O)N1C[C@H]2CC(C(=O)Nc3cc(-c4cc(C(N)=O)n5c4CC(C)(C)C5)ccn3)C[C@H]2C1 (single isomer, unassigned)

>  <unit-descriptor>
nM

>  <IC50>
2.8

$$$$
>  <compound>
CC(=O)N1C[C@H]2CC(C(=O)Nc3cc(-c4cnn5c4CC(C)(C)C5)c(Cl)cn3)C[C@H]2C1 (single isomer, unassigned)

>  <unit-descriptor>
nM

>  <IC50>
2.9

$$$$
>  <compound>
CC(=O)N[C@@H]1CCC[C@H](C(=O)Nc2cc(-c3cc(C(N)=O)c4n3CC(C)(C)C4)c(Cl)cn2)C1

>  <unit-descriptor>
nM

>  <IC50>
4.9

$$$$
>  <compound>
CC(=O)N[C@H]1C[C@@H]2C[C@H](C(=O)Nc3cc(-c4cc(C#N)n5c4CC(C)(C)C5)c(Cl)cn3)C[C@@H]2C1 (single isomer, unassigned)

>  <unit-descriptor>
nM

>  <IC50>
4.3

$$$$
>  <compound>
CNC(=O)C1C[C@@H]2CC(C(=O)Nc3cc(-c4cc(C(N)=O)n5c4CC(C)(C)C5)c(Cl)cn3)C[C@@H]2C1 (single isomer, unassigned) [Compound 26-1]

>  <unit-descriptor>
nM

>  <IC50>
2.9

$$$$
>  <compound>
CC1(C)Cc2c(-c3cc(NC(=O)[C@H]4CCC[C@H](c5cccnc5)C4)ncc3Cl)cnn2C1 (single isomer, unassigned)

>  <unit-descriptor>
nM

>  <IC50>
28.6

$$$$

----------
# System: Mv4-11 cells
# assay-summary: Inhibition of the proliferation of Mv4-11 cells (CCK8)
# Format: cell-based
# condition-label: Homo sapiens, MV4-11, 48 h, Mv4-11 cell proliferation, CCK8 OD450
pIC50: −log10 of the molar value.

>  <molecule>
CC(=O)N[C@@H]1CCC[C@H](C(=O)Nc2cc(-c3cc(C(N)=O)c4n3CC(C)(C)C4)ccn2)C1

>  <pIC50>
7.44

$$$$
>  <molecule>
CC1(C)Cc2c(-c3cc(NC(=O)[C@@H]4CCC[C@H](c5cccnc5)C4)ncc3Cl)cnn2C1 (single isomer, unassigned)

>  <pIC50>
7.82

$$$$
>  <molecule>
Cn1ccc([C@@H]2CCC[C@H](C(=O)Nc3cc(-c4cnn5c4CC(C)(C)C5)c(Cl)cn3)C2)n1 (single isomer, unassigned)

>  <pIC50>
8.55

$$$$
>  <molecule>
CC(=O)N1C[C@H]2C[C@H](C(=O)Nc3cc(-c4cnn5c4CC(C)(C)C5)c(Cl)cn3)C[C@H]2C1

>  <pIC50>
7.83

$$$$
>  <molecule>
CC(=O)N[C@@H]1CCC[C@H](C(=O)Nc2cc(-c3cc(C#N)n4c3CC(C)(C)C4)c(F)cn2)C1

>  <pIC50>
7.57

$$$$
>  <molecule>
CC(=O)N1C[C@H]2C[C@@H](C(=O)Nc3cc(-c4cc(C#N)n5c4CC(C)(C)C5)c(Cl)cn3)C[C@H]2C1

>  <pIC50>
8.07

$$$$

----------
# Test system: Mv4-11 cells
# assay-summary: Inhibition of the proliferation of Mv4-11 cells (CCK8)
# Type: cell-based
# condition-label: Homo sapiens, MV4-11, 48 h, Mv4-11 cell proliferation, CCK8 OD450
// reported IC50 per item
quantity: IC50 (nM)

>  <compound>
C[C@@H](N)C(=O)N1C[C@H]2CC(C(=O)Nc3cc(-c4cnn5c4CC(C)(C)C5)c(Cl)cn3)C[C@H]2C1 (some centres unmarked)

>  <quantity>
IC50

>  <modifier-sign>
=

>  <endpoint-value>
5.4

$$$$
>  <compound>
CC(=O)N[C@H]1C[C@@H]2C[C@@H](C(=O)Nc3cc(-c4cc(C#N)n5c4CC(C)(C)C5)c(Cl)cn3)C[C@@H]2C1 (single isomer, unassigned)

>  <quantity>
IC50

>  <modifier-sign>
=

>  <endpoint-value>
23.9

$$$$
>  <compound>
Cn1cc([C@@H]2CCC[C@H](C(=O)Nc3cc(-c4cnn5c4CC(C)(C)C5)c(Cl)cn3)C2)cn1 (single isomer, unassigned)

>  <quantity>
IC50

>  <modifier-sign>
=

>  <endpoint-value>
7.9

$$$$
>  <compound>
CC1(C)Cc2c(-c3cc(NC(=O)[C@@H]4CCC[C@@H](c5ccncc5)C4)ncc3Cl)cnn2C1 (single isomer, unassigned)

>  <quantity>
IC50

>  <modifier-sign>
=

>  <endpoint-value>
71.9

$$$$
>  <compound>
CC1(C)Cc2c(-c3cc(NC(=O)[C@H]4CCC[C@@H](c5cccnc5)C4)ncc3Cl)cnn2C1 (single isomer, unassigned)

>  <quantity>
IC50

>  <modifier-sign>
>

>  <endpoint-value>
1000

$$$$

Source listed as patent US20230192703A1.
